Provide the recorded zone of inhibition at 10 µM for the entries that follow.
# System: Enterococcus faecium
# EXPERIMENT: Antibacterial activity against vancomycin-resistant Enterococcus faecium ATCC 700221 at 10 uM by disc diffusion method
# Assay type: functional
# COND: read-out: DIZ
One number for each entry, in mm.

// below: answered compounds
Input line: Requested read-out: zone of inhibition at 10 µM. Entry: O=C(O)c1cn(C2CC2)c2cc(N3CCN(Sc4ccccc4[N+](=O)[O-])CC3)c(F)cc2c1=O
Output line: 0

Input line: Requested read-out: zone of inhibition at 10 µM. Entry: O=C(O)c1cn(C2CC2)c2cc(N3CCN(Sc4ccc([N+](=O)[O-])cc4)CC3)c(F)cc2c1=O
Output line: 8

Input line: // returns reported zone of inhibition at 10 µM for input O=C(O)c1cn(C2CC2)c2cc(N3CCN(Sc4ccc(Cl)cc4)CC3)c(F)cc2c1=O
Output line: 8

Input line: zone of inhibition at 10 µM for O=C(O)c1cn(C2CC2)c2cc(N3CCNCC3)c(F)cc2c1=O [CIPROFLOXACIN] ?
Output line: 0

Input line: So what's the measured zone of inhibition at 10 µM for this one? CCC(C)SN1CCN(c2cc3c(cc2F)c(=O)c(C(=O)O)cn3C2CC2)CC1 (centres undefined)
Output line: 8

Provide the reported zone of inhibition at 10 µM of each entry below, same order.
1. CC(C)C(C)SN1CCN(c2cc3c(cc2F)c(=O)c(C(=O)O)cn3C2CC2)CC1 (centres undefined)
2. CCSN1CCN(c2cc3c(cc2F)c(=O)c(C(=O)O)cn3C2CC2)CC1
3. CCCCSN1CCN(c2cc3c(cc2F)c(=O)c(C(=O)O)cn3C2CC2)CC1
4. CCCSN1CCN(c2cc3c(cc2F)c(=O)c(C(=O)O)cn3C2CC2)CC1

Output line:
[0, 0, 0, 0]
